Biological target: T1, human IL-25 expressed with a C-terminal myc-myc-hexahistidine tag (human)
T1 construct: also called human IL-25-MMH; hIL-25-MMH
T1 chain: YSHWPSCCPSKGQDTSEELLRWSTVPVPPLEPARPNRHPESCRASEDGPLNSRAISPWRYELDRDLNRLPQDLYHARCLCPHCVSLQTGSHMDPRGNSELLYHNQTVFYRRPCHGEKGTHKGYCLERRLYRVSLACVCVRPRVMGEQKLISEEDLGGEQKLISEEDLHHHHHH
Test: SPR Biacore, captured mAb, 37°C
Each entry below lists one item and its recorded t½ value.
Enter your answer as a number in min; do not include the unit.

**Query** Look up t½: H4H10897P (antibody, human IgG4, V domains shown) VH: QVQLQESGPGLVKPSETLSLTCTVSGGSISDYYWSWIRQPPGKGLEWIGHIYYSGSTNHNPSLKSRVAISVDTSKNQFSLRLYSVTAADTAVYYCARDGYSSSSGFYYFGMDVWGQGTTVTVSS VL: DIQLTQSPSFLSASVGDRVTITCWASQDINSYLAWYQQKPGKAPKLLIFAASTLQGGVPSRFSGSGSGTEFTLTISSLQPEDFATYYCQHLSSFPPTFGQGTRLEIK
**Result** 51

**Query** Which t½ is reported for this binder? H4H10883P (antibody, human IgG4, V domains shown) VH: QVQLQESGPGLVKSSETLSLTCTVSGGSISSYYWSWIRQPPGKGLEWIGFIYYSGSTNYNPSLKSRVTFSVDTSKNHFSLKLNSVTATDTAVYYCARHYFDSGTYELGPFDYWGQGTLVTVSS VL: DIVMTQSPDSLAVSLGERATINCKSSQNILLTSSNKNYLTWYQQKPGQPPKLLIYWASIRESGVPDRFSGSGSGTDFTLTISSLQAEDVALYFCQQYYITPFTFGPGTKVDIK
**Result** 241

**Query** Request the reported t½ associated with H4H10863P (antibody, human IgG4, V domains shown) VH: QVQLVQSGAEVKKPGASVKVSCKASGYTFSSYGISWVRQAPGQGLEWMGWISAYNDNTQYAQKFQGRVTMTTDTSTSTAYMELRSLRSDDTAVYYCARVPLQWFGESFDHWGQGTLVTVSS VL: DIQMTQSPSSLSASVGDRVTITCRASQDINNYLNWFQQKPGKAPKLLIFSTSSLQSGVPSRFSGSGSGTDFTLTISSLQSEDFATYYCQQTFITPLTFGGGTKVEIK
**Result** 149
